# System: MS2 coat protein
# experiment.notes: apparent KD of MS2 coat protein; designed switch direction (-1 OFF switch, 1 ON switch): -1; higher = weaker reporter binding
# measurement.conditions: input ligand: none
Item-by-item account of apparent KD of MS2 coat protein
Numeric answer only, unit µM assumed.

>>> value_measured("AGCCACAGAGGAUAUACAUACAUCCAGUAGUAAAGAAUACUACAUGAGGAUCACCCAUGUAGAAGGCUGUGGCA [Omei Ex2 BD B13] (Eterna round: R97, puzzle: Exclusion 2)")
0.0864
>>> value_measured("GAAUAGCAAGCGAGAUCCCACAUGAGGAUCACCCAUGUGCUCGUCUUAUAAAGUACUGUGACGAGAGUCACGGUACA [Mat - Sensor, turn-off var - Eli Mod - D14] (Eterna round: R97, puzzle: Sensor, turn-off variant 1)")
0.0161
>>> value_measured("UCUAUAGGGCUGCAGGCUUACAUGAGGAUCACCCAUGUAUAGGGUUUUCUACGCGCUCGUCAUCAUACAUUAAUUCG [Eternabot (L1) Solution 31] (Eterna round: R97, puzzle: Sensor, turn-off variant 1)")
0.0531
>>> value_measured("CCGGUUGGCGCAGGAUAUACAUGAGGAUCACCCAUGUUCGUGAGGAUCACCCAUGAGUUUUUGUUGUAGAAGGGUGGCCCGGCC (Eterna round: R96, puzzle: Exclusion NG 2)")
0.0285
>>> value_measured("CUUAAUUGUGACAUGGGUGACAUGAGGAUCACCCAUGUCACAAGCUUUUUGCUCGUCUUAUAAUUAACCCAUGUCAC [Stov1/13-A3] (Eterna round: R97, puzzle: Sensor, turn-off variant 1)")
0.0334

Enquiry: Request the reported apparent KD of MS2 coat protein associated with GGUCCUGAUGAUUUUCUAUACAUGAGGAUCACCCAUGUAUGUGUAUUUUGUUUUUCGCUUUUUGGUCGUCAAUAAUA [Mod-Hoo-honey] (Eterna round: R97, puzzle: Sensor, turn-off variant 1)
Return: 0.0443

Enquiry: Request the reported apparent KD of MS2 coat protein associated with GCAAGAAUAGGAUAUACACCAUGCCAGCUUCUAUACAACGCACAUGAGGAUCACCCAUGUAGAAGGGUUCUCUC [Exclusion-2-#11] (Eterna round: R97, puzzle: Exclusion 2)
Return: 0.323

Enquiry: Request the reported apparent KD of MS2 coat protein associated with UAUAUAUAGUAAGGAUAUGUAUUUAUUUUAUCAACAGAAGGUACUGACAUGAGGAUCACCCAUGUUUUAGUGUGGGCAUGUAGA [JMF's solution 26] (Eterna round: R96, puzzle: Exclusion NG 1)
Return: 0.0857

Enquiry: Request the reported apparent KD of MS2 coat protein associated with AGCGCCAUCGUGAGAUGGCGUAUUACAUGAGGAUCACCCAUGUAGGAUAUCGAUUGCUUUGCAGUCGAGAAGGACAUGUUUUAG [JL ENG3 3.80 Mod E] (Eterna round: R96, puzzle: Exclusion NG 3)
Return: 0.0743
